Molecular target: δ-opioid (Mus musculus, UniProt P32300)
Construct: Each of the vas deferens isolated from the mice was hung in a Magnus tube; from tissue; host or cells: isolated vas deferens of male ddy strain mice
Sequence (P32300 whole entry): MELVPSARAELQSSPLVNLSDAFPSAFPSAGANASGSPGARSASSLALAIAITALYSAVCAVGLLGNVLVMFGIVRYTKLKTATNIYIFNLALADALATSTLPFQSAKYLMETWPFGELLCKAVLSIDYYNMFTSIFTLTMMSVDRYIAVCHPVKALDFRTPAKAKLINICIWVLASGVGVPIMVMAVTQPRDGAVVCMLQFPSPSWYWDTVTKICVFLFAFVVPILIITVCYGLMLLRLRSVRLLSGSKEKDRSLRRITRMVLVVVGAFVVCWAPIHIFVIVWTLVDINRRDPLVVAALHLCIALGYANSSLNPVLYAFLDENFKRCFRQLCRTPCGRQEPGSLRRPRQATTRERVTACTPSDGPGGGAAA
Assay: δ-opioid antagonism against DPDPE in mouse vas deferens (MVD)
Type: biochemical, mouse (male ddy strain)
Could you please report measured Kb for the items listed next?
Enter the number, and then the unit.

Example entries and their recorded answers appear below.
| givenSmiles | testTarget | quantity | observedResult |
| --- | --- | --- | --- |
| COc1cc2c3c(c1)c1c(n3CCC2)[C@@H]2Oc3c(O)ccc4c3[C@@]23CCN(CC2CC2)[C@H](C4)[C@]3(O)C1 | δ-opioid (Mus musculus, UniProt P32300) | Kb | 1 nM |
| Oc1ccc2c3c1O[C@H]1c4c(c5ccc6cccc7c6c5n4CC7)C[C@@]4(O)[C@@H](C2)N(CC2CC2)CC[C@]314 | δ-opioid (Mus musculus, UniProt P32300) | Kb | 2 nM |
| Oc1ccc2c3c1O[C@H]1c4c(c5cccc6c5n4CCCCC6)C[C@@]4(O)[C@@H](C2)N(CC2CC2)CC[C@]314 | δ-opioid (Mus musculus, UniProt P32300) | Kb | 10 nM |
| CC1(C)Cc2cccc3c4c(n(c23)C1)[C@@H]1Oc2c(O)ccc3c2[C@@]12CCN(CC1CC1)[C@H](C3)[C@]2(O)C4 | δ-opioid (Mus musculus, UniProt P32300) | Kb | 3.16 nM |
| Cc1cc2c3c(c1)c1c(n3CCC2)[C@@H]2Oc3c(O)ccc4c3[C@@]23CCN(CC2CC2)[C@H](C4)[C@]3(O)C1 | δ-opioid (Mus musculus, UniProt P32300) | Kb | 5.01 nM |

QUERY: Please look up its Kb: Oc1ccc2c3c1O[C@H]1c4c(c5cc(Cl)cc6c5n4CCC6)C[C@@]4(O)[C@@H](C2)N(CC2CC2)CC[C@]314
RESULT: 5.01 nM

* * *

Molecular target: δ-opioid (Mus musculus, UniProt P32300)
Construct: Each of the vas deferens isolated from the mice was hung in a Magnus tube; from tissue; host or cells: isolated vas deferens of male ddy strain mice
Experiment: δ-opioid agonism: inhibition of electrically stimulated mouse vas deferens (MVD) contraction, antagonism by NTI
Format: biochemical, mouse (male ddy strain)
quantity: pIC50
Numbers only, as −log10 of the molar value.

Example entries and their recorded answers appear below.
| givenSmiles | pIC50 |
| --- | --- |
| C=CCCN1CC[C@]23c4c5ccc(O)c4O[C@H]2c2c(c4cccc6c4n2CCC6)C[C@@]3(O)[C@H]1C5 | 7.80 |
| Oc1ccc2c3c1O[C@H]1c4c(c5cccc6c5n4CCC6)C[C@@]4(O)[C@@H](C2)N(CC2CCC2)CC[C@]314 | 8.53 |
| CN1CC[C@]23c4c5ccc(O)c4O[C@H]2c2c(c4cccc6c4n2CCC6)C[C@@]3(O)[C@H]1C5 | 7.74 |

QUERY: Please look up its pIC50: Oc1ccc2c3c1O[C@H]1c4c(c5cccc6c5n4CCC6)C[C@@]4(O)[C@@H](C2)N(CCc2cccs2)CC[C@]314
RESULT: 7.47

* * *

Molecular target: δ-opioid (Mus musculus, UniProt P32300)
Construct: Each of the vas deferens isolated from the mice was hung in a Magnus tube; from tissue; host or cells: isolated vas deferens of male ddy strain mice
Assay: δ-opioid agonism: inhibition of electrically stimulated mouse vas deferens (MVD) contraction, antagonism by NTI
Format: biochemical, mouse (male ddy strain)
Details: concentration for 50% inhibition of MVD contraction induced by electric stimulation
quantity: pIC50
One number for each entry, as −log10 of the molar value.

QUERY: Please look up its pIC50: Oc1ccc2c3c1O[C@H]1c4c(c5cccc6c5n4CCC6)C[C@@]4(O)[C@@H](C2)N(CCc2ccccc2)CC[C@]314
RESULT: 8.01

* * *

Could you please report measured Ke for the items listed next?
Molecular target: δ-opioid (Mus musculus, UniProt P32300)
Construct: Each of the vas deferens isolated from the mice was hung in a Magnus tube; from tissue; host or cells: isolated vas deferens of male ddy strain mice
Test: δ-opioid agonism: inhibition of electrically stimulated mouse vas deferens (MVD) contraction, antagonism by NTI
Assay type: biochemical, mouse (male ddy strain)
Set-up: unit not given here
Conditions: against NTI added 20 minutes before; Ke=[NTI Concentration]/[(IC50 ratio)-1]

| givenSmiles | Ke |
| --- | --- |
| Oc1ccc2c3c1O[C@H]1c4c(c5cccc6c5n4CCC6)C[C@@]4(O)[C@@H](C2)N(CC2CCC2)CC[C@]314 | 6.21 |
| CN1CC[C@]23c4c5ccc(O)c4O[C@H]2c2c(c4cccc6c4n2CCC6)C[C@@]3(O)[C@H]1C5 | 0.21 |
| Oc1ccc2c3c1O[C@H]1c4c(c5cccc6c5n4CCC6)C[C@@]4(O)[C@@H](C2)N(CCc2cccs2)CC[C@]314 | 0.03 |

Could you tell me Ke for each of these compounds? They are listed below.
1. C=CCCN1CC[C@]23c4c5ccc(O)c4O[C@H]2c2c(c4cccc6c4n2CCC6)C[C@@]3(O)[C@H]1C5
2. Oc1ccc2c3c1O[C@H]1c4c(c5cccc6c5n4CCC6)C[C@@]4(O)[C@@H](C2)N(CCc2ccccc2)CC[C@]314

RESULT:
0.05
0.06

* * *

Could you please report measured log10 of ED50 for the items listed next?
Tested on: capsaicin-induced cough
Experiment: Antitussive action in rat, capsaicin-induced cough
Assay type: in vivo
Conditions: ip, 0.5 h, dosage for 50% cough inhibition, intraperitoneal, 10% DMSO solution, 30 minutes after administration
Note the log scale: values are log10 of ED50 expressed in µg/kg.

| givenSmiles | quantity | observedResult |
| --- | --- | --- |
| COc1ccc2c3c1O[C@H]1c4c(c5cccc6c5n4CCC6)C[C@@]4(O)[C@@H](C2)N(CC2CC2)CC[C@]314 | log10 of ED50 | 0.54 |
| C=CCN1CC[C@]23c4c5ccc(OC)c4O[C@H]2c2c(c4cccc6c4n2CCC6)C[C@@]3(O)[C@H]1C5 | log10 of ED50 | 0.04 |
| COc1ccc2c3c1O[C@H]1c4c(c5ccc(OC)c6c5n4CCC6)C[C@@]4(O)[C@@H](C2)N(CC2CC2)CC[C@]314 | log10 of ED50 | 0.40 |
| Cc1cc2c3c(c1)c1c(n3CCC2)[C@@H]2Oc3c(O)ccc4c3[C@@]23CCN(CC2CC2)[C@H](C4)[C@]3(O)C1 | log10 of ED50 | 1.21 |
| COc1ccc2c3c1O[C@H]1c4c(c5cccc6c5n4CCC6(C)C)C[C@@]4(O)[C@@H](C2)N(CC2CC2)CC[C@]314 | log10 of ED50 | 0.39 |
| COc1ccc2c3c(n4c2c1CCC4)[C@@H]1Oc2c(O)ccc4c2[C@@]12CCN(CC1CC1)[C@H](C4)[C@]2(O)C3 | log10 of ED50 | 0.97 |
| COc1ccc2c3c1O[C@H]1c4c(c5cc(Cl)cc6c5n4CCC6)C[C@@]4(O)[C@@H](C2)N(CC2CC2)CC[C@]314 | log10 of ED50 | 1.13 |
| COc1ccc2c3c1O[C@H]1c4c(c5c(OC)ccc6c5n4CCC6)C[C@@]4(O)[C@@H](C2)N(CC2CC2)CC[C@]314 | log10 of ED50 | 1.04 |

Could you tell me log10 of ED50 for each of these molecules? They are listed below.
1. Oc1ccc2c3c1O[C@H]1c4c(c5ccc6cccc7c6c5n4CC7)C[C@@]4(O)[C@@H](C2)N(CC2CC2)CC[C@]314
2. Oc1ccc2c3c1O[C@H]1c4c(c5cccc6c5n4CCCC6)C[C@@]4(O)[C@@H](C2)N(CC2CC2)CC[C@]314
3. COc1ccc2c3c1O[C@H]1c4c(c5cc(F)cc6c5n4CCC6)C[C@@]4(O)[C@@H](C2)N(CC2CC2)CC[C@]314
4. Oc1ccc2c3c1O[C@H]1c4c(c5cccc6c5n4CCC6)C[C@@]4(O)[C@@H](C2)N(CC2CC2)CC[C@]314
5. COc1ccc2c3c1O[C@H]1c4c(c5c(C)ccc6c5n4CCC6)C[C@@]4(O)[C@@H](C2)N(CC2CC2)CC[C@]314

RESULT:
1. 0.23
2. 1.09
3. 0.67
4. 0.93
5. 1.38

Could you tell me log10 of ED50 for each of these molecules? They are listed below.
1. Oc1ccc2c3c1O[C@H]1c4c(c5cccc6c5n4CC6)C[C@@]4(O)[C@@H](C2)N(CC2CC2)CC[C@]314
2. COc1ccc2c3c1O[C@H]1c4c(c5ccc6cccc7c6c5n4CC7)C[C@@]4(O)[C@@H](C2)N(CC2CC2)CC[C@]314
3. COc1ccc2c3c1O[C@H]1c4c(c5cc(Br)cc6c5n4CCC6)C[C@@]4(O)[C@@H](C2)N(CC2CC2)CC[C@]314
4. COc1ccc2c3c1O[C@H]1c4c(c5cccc6c5n4Cc4ccccc4-6)C[C@@]4(O)[C@@H](C2)N(CC2CC2)CC[C@]314
5. Cc1ccc2c3c1c1c(n3CCC2)[C@@H]2Oc3c(O)ccc4c3[C@@]23CCN(CC2CC2)[C@H](C4)[C@]3(O)C1
6. Oc1ccc2c3c1O[C@H]1c4c(c5cccc6c5n4Cc4ccccc4-6)C[C@@]4(O)[C@@H](C2)N(CC2CC2)CC[C@]314
7. COc1ccc2c3c1O[C@H]1c4c(c5cccc6c5n4CCCC6)C[C@@]4(O)[C@@H](C2)N(CC2CC2)CC[C@]314

RESULT:
0.96
1.32
1.33
0.70
1.32
0.64
0.99

Could you tell me log10 of ED50 for each of these molecules? They are listed below.
1. Oc1ccc2c3c1O[C@H]1c4c(c5cc(F)cc6c5n4CCC6)C[C@@]4(O)[C@@H](C2)N(CC2CC2)CC[C@]314
2. COc1ccc2c3c1O[C@H]1c4c(c5cc(C)cc6c5n4CCC6)C[C@@]4(O)[C@@H](C2)N(CC2CC2)CC[C@]314

RESULT:
1. 1.20
2. 0.73
